pIC50: −log10 of the molar value.
Record: compiled pIC50 on Angiopoietin-1 receptor (Homo sapiens, UniProt Q02763) from multiple reports.

Readout pIC50 for "COc1ccccc1Nc1ncnc(-c2ccccc2)n1" , test system Angiopoietin-1 receptor (Homo sapiens, UniProt Q02763), was < 4.79

For the compound "COc1ccc(Nc2ncnc(Nc3ccc(N(C)C)cc3)n2)cc1OC" , the measured pIC50 on Angiopoietin-1 receptor (Homo sapiens, UniProt Q02763) was < 4.91

Reading of pIC50 for "COc1ccc(-c2nc(-c3ccncc3)nn2CCN(C(=O)c2ccccc2)C2CCCC2)cc1Cl" with Angiopoietin-1 receptor (Homo sapiens, UniProt Q02763): ≤ 5.00

For the compound "CCc1cccc(NC(=O)N2CCN(c3ncccc3OCc3ccnc(NC(=O)OC)c3)CC2)c1" , the measured pIC50 on Angiopoietin-1 receptor (Homo sapiens, UniProt Q02763) was > 7.30

Short answer on Angiopoietin-1 receptor (Homo sapiens, UniProt Q02763) for "COc1ccc(-c2nc(-c3ccncc3)nn2CCN(C(=O)Nc2ccccc2-c2ccccc2)C2CCCC2)cc1Cl" , pIC50: ≤ 5.00

Value sought: pIC50, system Angiopoietin-1 receptor (Homo sapiens, UniProt Q02763), item "COc1cccc(C(=O)c2c[nH]c3ncc(-c4cccc(NC(C)=O)c4)cc23)c1F" . Result: ≥ 5.00

# pIC50 measured on Angiopoietin-1 receptor (Homo sapiens, UniProt Q02763) for item "CCOC(=O)Nc1cc(COc2nsnc2N2CCN(C(=O)Nc3cc(C(F)(F)F)cc(C(F)(F)F)c3)CC2)ccn1" = > 7.30

Record "Nc1nccc(COc2nsnc2N2CCN(C(=O)Nc3cc(Cl)cc(C(F)(F)F)c3)CC2)n1" / Angiopoietin-1 receptor (Homo sapiens, UniProt Q02763), pIC50 recorded as > 7.30

Result for "COc1ccc(-c2cnn3c(N)c(-c4ccc(F)c(Cl)c4)c(C)nc23)cc1" , tested on Angiopoietin-1 receptor (Homo sapiens, UniProt Q02763), pIC50: < 5.00

// assay Angiopoietin-1 receptor (Homo sapiens, UniProt Q02763), entry "COc1cc(Nc2ncnc(-n3c(NCc4cccc(Cl)c4)nc4ccccc43)n2)cc(OC)c1OC" , pIC50 value = < 5.06

Per the reported Angiopoietin-1 receptor (Homo sapiens, UniProt Q02763) data, NCC1CC(n2cc(-c3ccc(N)cc3)c3c(N)ncnc32)C1 (stereo not drawn) has pIC50 of 5.82

# pIC50 measured on Angiopoietin-1 receptor (Homo sapiens, UniProt Q02763) for item "Cc1nc(-c2ccncc2)nn1CCN(C(=O)Cc1cccc2ccccc12)C1CCCCC1" = > 7.30

The recorded pIC50 with Angiopoietin-1 receptor (Homo sapiens, UniProt Q02763) for "O=C(Nc1cc(C(F)(F)F)cc(C(F)(F)F)c1)N1CCN(c2nsnc2NCc2ccncc2)CC1" was 5.00 to 6.00

The compound "Nc1nccc(COc2nsnc2N2CCN(C(=O)Nc3cc(Cl)ccc3F)CC2)n1" , when measured on Angiopoietin-1 receptor (Homo sapiens, UniProt Q02763), yielded pIC50 of 5.00 to 6.00

Item "O=C(Nc1cc(C(F)(F)F)cc(C(F)(F)F)c1)N1CCN(c2nsnc2OCc2ccnc(NC3CC3)n2)CC1" was tested on Angiopoietin-1 receptor (Homo sapiens, UniProt Q02763); the reported pIC50 is > 7.30

"COc1cc(Nc2ncnc(Nc3cccc4ccccc34)n2)cc(OC)c1OC" on Angiopoietin-1 receptor (Homo sapiens, UniProt Q02763) gives pIC50 = < 4.95

For the compound "COc1ccc(Nc2ncnc(N(CC(=O)OC(C)(C)C)c3ccc4c(c3)OCO4)n2)cc1OC" , the measured pIC50 on Angiopoietin-1 receptor (Homo sapiens, UniProt Q02763) was < 5.03

Lab note: compound "CSc1cccc(NC(=O)N2CCN(c3nsnc3OCc3ccnc(N)n3)CC2)c1" tested on Angiopoietin-1 receptor (Homo sapiens, UniProt Q02763); recorded pIC50 was 6.00 to 7.30

Entry "O=C(Nc1ccc(-c2cnc3nc2NCCCNS(=O)(=O)c2cccc(c2)N3)cc1)Nc1cc(C(F)(F)F)ccc1F" , Angiopoietin-1 receptor (Homo sapiens, UniProt Q02763) data, pIC50 value: ≥ 6.00

Measured pIC50 (Angiopoietin-1 receptor (Homo sapiens, UniProt Q02763)), entry NCC1CC(n2cc(-c3cccs3)c3c(N)ncnc32)C1 (stereo not drawn) : 5.32

Fill in: Angiopoietin-1 receptor (Homo sapiens, UniProt Q02763) pIC50 for "C[C@H](O)CNc1nc(-c2ccncc2)nc2ccccc12" = ≤ 5.00

// pIC50 (Angiopoietin-1 receptor (Homo sapiens, UniProt Q02763)) for "COc1cc(Nc2ncnc(-c3c(O)n(C)c4ccccc34)n2)cc(OC)c1OC" = < 4.96

Noted pIC50 for "CCOc1ccc(Nc2ncnc(-n3c(N)nc4ccccc43)n2)cc1OCC" , tested on Angiopoietin-1 receptor (Homo sapiens, UniProt Q02763): 5.05 to 5.21

Readout pIC50 for "CNC(=O)c1cc(Oc2ccc(NC(=O)Nc3cc(C(F)(F)F)ccc3F)cc2)ccn1" , test system Angiopoietin-1 receptor (Homo sapiens, UniProt Q02763), was 7.49

The compound "Nc1nccc(COc2nsnc2N2CCN(C(=O)Cc3ccc4ccccc4c3)CC2)n1" on Angiopoietin-1 receptor (Homo sapiens, UniProt Q02763): pIC50 was ≤ 5.00

// assay Angiopoietin-1 receptor (Homo sapiens, UniProt Q02763), entry "C[C@H](CO)Nc1nc(-c2ccncc2)nc2ccccc12" , pIC50 value = ≤ 5.00

Item: "Cc1ccc(C(=O)Nc2cccc(C(F)(F)F)c2)cc1Oc1ncccc1-c1ccn[nH]1" | System: Angiopoietin-1 receptor (Homo sapiens, UniProt Q02763) | pIC50: ≥ 6.30

Reading of pIC50 for "COc1cc(Nc2ncnc(-n3c(NCc4ccc(Cl)cc4)nc4ccccc43)n2)cc(OC)c1OC" with Angiopoietin-1 receptor (Homo sapiens, UniProt Q02763): < 5.06

Entry "COc1ccc(-c2cnn3c(N)c(-c4cccc(Cl)c4)c(C)nc23)cc1" , tested on Angiopoietin-1 receptor (Homo sapiens, UniProt Q02763), has a reported pIC50 of < 5.00

Entry "COc1ccc(-c2nc(-c3ccncc3)nn2CCN(C(=O)NC(C)(C)C)C2CCCC2)cc1Cl" under Angiopoietin-1 receptor (Homo sapiens, UniProt Q02763) had pIC50 of ≤ 5.00

Per the reported Angiopoietin-1 receptor (Homo sapiens, UniProt Q02763) data, "C=C(C)c1cccc(C(C)(C)NC(=O)N(CCn2nc(-c3ccncc3)nc2-c2ccc(OC)c(Cl)c2)C2CCCC2)c1" has pIC50 of ≤ 5.00

# lookup: "COc1ccc(-c2nc(-c3ccncc3)n(CCN(C(=O)Cc3cccc4ccccc34)C3CC3)n2)cc1Cl" on Angiopoietin-1 receptor (Homo sapiens, UniProt Q02763), pIC50 = 6.00 to 7.30

Form field, pIC50 with Angiopoietin-1 receptor (Homo sapiens, UniProt Q02763), item "O=C(Nc1cccc(OC(F)(F)F)c1)c1cc(Oc2ncccc2-c2cnco2)ccc1F" : ≥ 6.00
